tested on: serum IgE of cow's milk allergic patients; assay: IgE binding capacity (IgE reactivity) of milk components with patients' sera; set-up: species or system human; details: sera of cow's milk allergic patients (n=78)
reported.endpoint: IgE binding (% of patients)

Look up IgE binding (% of patients) for this molecule: recombinant alphaS1-casein (protein, expressed in E. coli) RPKHPIKHQGLPQEVLNENLLRFFVAPFPEVFGKEKVNELSKDIGSESTEDQAMEDIKQMEAESISSSEEIVPNSVEQKHIQKEDVPSERYLGYLEQLLRLKKYKVPQLEIVPNSAEERLHSMKEGIHAQQKEPMIGVNQELAYFYPELFRQFYQLDAYPSGAWYYVPLGTQYTDAPSFSDIPNPIGSENSEKTTMPLW
48.7 % of patients

Look up IgE binding (% of patients) for this molecule: BSA_F3: recombinant fragment 3 of BSA, 200 aa, sequence in Table 1A (protein) MPQNLIKQNCDQFEKLGEYGFQNALIVRYTRKVPQVSTPTLVEVSRSLGKVGTRCCTKPESERMPCTEDYLSLWNRLCVLHEKTPVSEKVTKCCTESLVNRRPCFSALTPDETYVPKAFDEKLFTFHADICTLPDTEKQIKKQTALVELLKHKPKATEEQLKTVMENFVAFVDKCCAADDKEACFAVEGPKLVVSTQTALAHHHHHH
8.5 % of patients

Look up IgE binding (% of patients) for this molecule: human alpha-lactalbumin (protein, natural purified protein) KQFTKCELSQLLKDIDGYGGIALPELICTMFHTSGYDTQAIVENNESTEYGLFQISNKLWCKSSQVPQSRNICDISCDKFLDDDITDDIMCAKKILDIKGIDYWLAHKALCTEKLEQWLCEKL
30.8 % of patients

Look up IgE binding (% of patients) for this molecule: BSA_F2: recombinant fragment 2 of BSA, 189 aa, sequence in Table 1A (protein) MARQRLRCASIQKFGERALKAWSVARLSQKEPKAEFVEVTKLVTDLTKVHKECCHGDLLECADDRADLAKYICDNQDTISSKLKECCDKPLLEKSHCIAEVEKDAIPENLPPLTADFAEDKDVCKNYQEAKDAFLGSFLYEYSRRHPEYAVSVLLRLAKEYEATLEECCAKDDPHACYSTVFDKLKHLVDEHHHHHH
8.5 % of patients

Look up IgE binding (% of patients) for this molecule: BSA_F1: recombinant fragment 1 of BSA, 190 aa, sequence in Table 1A (protein) MRGVFRRDTHKSEIAHRFKDLGEEHFKGLVLIAFSQYLQQCPFDEHVKLVNELTEFAKTCVADESHAGCEKSLHTLFGDELCKVASLRETYGDMADCCEKQEPERNECFLSHKDDSPDLPKLKPDPNTLCDEFKADEKKFWGKYLYEIARRHPYFYAPELLYYANKYNGVFQECCQAEDKGACLLPKIETMREKVLTSSHHHHHH
2.1 % of patients
